molecular target: Dipeptidyl peptidase IV (DPPIV) (Homo sapiens); construct: purchased Abnova; assay: DPPIV Inhibitor Screening Kit (fluorescence); assay type: biochemical; conditions: in vitro, mean ± SEM of two replicates; read-out: DPPIV inhibition IC50 (converted)
Sequence (P27487 whole entry, species assumed): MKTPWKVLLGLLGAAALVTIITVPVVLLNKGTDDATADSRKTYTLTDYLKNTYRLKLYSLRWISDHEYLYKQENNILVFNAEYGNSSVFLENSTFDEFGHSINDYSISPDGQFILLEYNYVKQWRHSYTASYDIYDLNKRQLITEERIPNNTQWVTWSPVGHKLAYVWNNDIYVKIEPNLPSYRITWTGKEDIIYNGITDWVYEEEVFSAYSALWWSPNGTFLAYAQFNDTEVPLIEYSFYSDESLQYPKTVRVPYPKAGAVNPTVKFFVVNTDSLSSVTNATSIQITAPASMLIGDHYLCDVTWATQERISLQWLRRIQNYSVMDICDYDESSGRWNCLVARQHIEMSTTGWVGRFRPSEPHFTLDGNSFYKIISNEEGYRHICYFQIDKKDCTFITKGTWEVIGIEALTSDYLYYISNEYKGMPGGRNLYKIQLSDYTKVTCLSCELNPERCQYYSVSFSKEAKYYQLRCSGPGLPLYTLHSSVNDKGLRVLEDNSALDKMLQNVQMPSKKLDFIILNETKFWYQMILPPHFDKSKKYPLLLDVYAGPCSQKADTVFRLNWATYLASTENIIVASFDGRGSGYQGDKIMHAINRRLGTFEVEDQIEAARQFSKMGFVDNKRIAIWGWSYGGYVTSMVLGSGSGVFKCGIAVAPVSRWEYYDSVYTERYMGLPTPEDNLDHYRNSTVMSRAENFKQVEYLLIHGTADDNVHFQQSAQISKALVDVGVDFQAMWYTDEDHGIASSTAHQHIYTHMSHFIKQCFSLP
measure_name: IC50 (nM)

- COc1cc(-c2oc3cc(O)cc(O)c3c(=O)c2O[C@@H]2O[C@H](CO)[C@@H](O)[C@H](O)[C@H]2O)ccc1O [Compound 3, isorhamnetin-3-O-β-D-glucoside]: 721

[A] COc1cc(-c2oc3cc(O[C@@H]4O[C@H](CO)[C@@H](O)[C@H](O)[C@H]4O[C@@H]4O[C@@H](C)[C@H](O)[C@@H](O)[C@H]4O)cc(O)c3c(=O)c2O)ccc1O [Compound 2, isorhamnetin-7-O-β-D-neohesperidoside]
[B] C[C@@H]1O[C@@H](Oc2cc(O)c3c(=O)c(O[C@@H]4O[C@H](CO)[C@@H](O)[C@H](O)[C@H]4O)c(-c4ccc(O)c(O)c4)oc3c2)[C@H](O)[C@H](O)[C@H]1O [Compound 1]
[C] COc1ccc(-c2oc3cc(O[C@@H]4O[C@@H](C)[C@H](O)[C@@H](O)[C@H]4O)cc(O)c3c(=O)c2O[C@@H]2O[C@@H](C)[C@H](O)[C@@H](O)[C@H]2O)cc1 [Compound 4]
Q. Arrange these compounds by their IC50, starting with the largest number. As an answer, provide the labels arranged in the order called for.
A. A, C, B

Hello, the source for this data is paper PMC7764826, in case you need it.
